// provenance: patent US20250154202A1

Would you kindly list Conc. (% of T0) for each of these molecules?
# assayExplanation: Plasma stability, human plasma
# condition: human plasma, 37° C., timepoint 0 h
Bridge positions count the residues as written; N and C are the ends. Peptide text beside a SMILES is read from it.

For record CC(=O)N1CCC[C@H]1C(=O)N[C@@H](CO)C(=O)N[C@@H](CCCNC(=N)N)C(=O)N[C@@H](CC(C)C)C(=O)N[C@@H](CCC(=O)O)C(=O)N[C@H]1CCCCNC(=O)CC[C@@H](C(=O)N[C@@H](CCCNC(=N)N)C(=O)N[C@@H](CC(C)C)C(=O)N[C@H](C(=O)N[C@@H](CCC(=O)O)C(N)=O)[C@@H](C)O)NC(=O)[C@H](CCCNC(=N)N)NC(=O)[C@H](CC(C)C)NC(=O)[C@H](CCC(=O)O)NC1=O [SD15805] (Ac-PSRLEKELRERLTE-NH2; lactam 6-10) the listed Conc. (% of T0) is 100.0 % of T0

For record CC(=O)N[C@@H](CO)C(=O)N[C@@H](CCCNC(=N)N)C(=O)N[C@@H](CC(C)C)C(=O)N[C@@H](CCC(=O)O)C(=O)N[C@@H](CCC(=O)O)C(=O)N[C@@H](CCC(=O)O)C(=O)N[C@@H](CC(C)C)C(=O)N[C@@H](CCCNC(=N)N)C(=O)N[C@H]1CCCCNC(=O)CC[C@@H](C(N)=O)NC(=O)[C@H]([C@@H](C)O)NC(=O)[C@H](CC(C)C)NC(=O)[C@H](CCCNC(=N)N)NC1=O [SD15193] (Ac-SRLEEELRKRLTE-NH2; lactam 9-13) the listed Conc. (% of T0) is 100.0 % of T0

====

# assayExplanation: Plasma stability, human plasma
# condition: human plasma, 37° C., timepoint 6 h
Bridge positions count the residues as written; N and C are the ends. Peptide text beside a SMILES is read from it.
Would you kindly list Tube 2 (compound concentration) for each of these molecules?
// no unit string in output, number only

For record CC(=O)N1CCC[C@H]1C(=O)N[C@@H](CO)C(=O)N[C@@H](CCCNC(=N)N)C(=O)N[C@@H](CC(C)C)C(=O)N[C@H]1CCC(=O)NCCCC[C@@H](C(=O)N[C@@H](CCCNC(=N)N)C(=O)N[C@@H](CCCNC(=N)N)C(=O)N[C@@H](CC(C)C)C(=O)N[C@H](C(=O)N[C@@H](CCC(=O)O)C(N)=O)[C@@H](C)O)NC(=O)[C@H](CC(C)C)NC(=O)[C@H](CCC(=O)O)NC(=O)[C@H](CCC(=O)O)NC1=O [SD15806] (Ac-PSRLEEELKRRLTE-NH2; lactam 5-9) the listed Tube 2 (compound concentration) is 2.417

For record CC(=O)N[C@@H](CO)C(=O)N[C@@H](CCCNC(=N)N)C(=O)N[C@@H](CC(C)C)C(=O)N[C@@H](CCC(=O)O)C(=O)N[C@H]1CCC(=O)NCCCC[C@@H](C(=O)N[C@@H](CCCNC(=N)N)C(=O)N[C@@H](CCCNC(=N)N)C(=O)N[C@@H](CC(C)C)C(=O)N[C@H](C(=O)N[C@@H](CCC(=O)O)C(N)=O)[C@@H](C)O)NC(=O)[C@H](CC(C)C)NC(=O)[C@H](CCC(=O)O)NC1=O [SD15192] (Ac-SRLEEELKRRLTE-NH2; lactam 5-8) the listed Tube 2 (compound concentration) is 0.868

====

# assayExplanation: Plasma stability, mouse plasma
# condition: mouse plasma, 37° C., timepoint 0 h
Bridge positions count the residues as written; N and C are the ends. Peptide text beside a SMILES is read from it.
assayReadout: Mean (compound concentration)

For record CC(=O)N[C@@H](CO)C(=O)N[C@@H](CCCNC(=N)N)C(=O)N[C@@H](CC(C)C)C(=O)N[C@@H](CCC(=O)O)C(=O)N[C@H]1CCC(=O)NCCCC[C@@H](C(=O)N[C@@H](CCCNC(=N)N)C(=O)N[C@@H](CCCNC(=N)N)C(=O)N[C@@H](CC(C)C)C(=O)N[C@H](C(=O)N[C@@H](CCC(=O)O)C(N)=O)[C@@H](C)O)NC(=O)[C@H](CC(C)C)NC(=O)[C@H](CCC(=O)O)NC1=O [SD15192] (Ac-SRLEEELKRRLTE-NH2; lactam 5-8) the listed Mean (compound concentration) is 2.70

For record CC(=O)N[C@@H](CO)C(=O)N[C@@H](CCCNC(=N)N)C(=O)N[C@@H](CC(C)C)C(=O)N[C@@H](CCC(=O)O)C(=O)N[C@H]1CC(=O)NCCCC[C@@H](C(=O)N[C@@H](CCCNC(=N)N)C(=O)N[C@@H](CC(C)C)C(=O)N[C@H](C(=O)N[C@@H](CCC(=O)O)C(N)=O)[C@@H](C)O)NC(=O)[C@H](CCCNC(=N)N)NC(=O)[C@H](CC(C)C)NC(=O)[C@H](CCC(=O)O)NC1=O [SD15196] (Ac-SRLEDELRKRLTE-NH2; lactam 5-9) the listed Mean (compound concentration) is 2.42

For record CC(=O)N[C@@H](CO)C(=O)N[C@@H](CCCNC(=N)N)C(=O)N[C@@H](CC(C)C)C(=O)N[C@@H](CCC(=O)O)C(=O)N[C@@H](CCC(=O)O)C(=O)N[C@@H](CCC(=O)O)C(=O)N[C@@H](CC(C)C)C(=O)N[C@@H](CCCNC(=N)N)C(=O)N[C@H]1CCCCNC(=O)CC[C@@H](C(N)=O)NC(=O)[C@H]([C@@H](C)O)NC(=O)[C@H](CC(C)C)NC(=O)[C@H](CCCNC(=N)N)NC1=O [SD15193] (Ac-SRLEEELRKRLTE-NH2; lactam 9-13) the listed Mean (compound concentration) is 3.29

====

# assayExplanation: Plasma stability, human plasma
# condition: human plasma, 37° C., timepoint 6 h
Bridge positions count the residues as written; N and C are the ends. Peptide text beside a SMILES is read from it.
assayReadout: Mean (compound concentration)
// no unit string in output, number only

For record CC(=O)N1CCC[C@H]1C(=O)N[C@@H](CO)C(=O)N[C@@H](CCCNC(=N)N)C(=O)N[C@@H](CC(C)C)C(=O)N[C@H]1CCC(=O)NCCCC[C@@H](C(=O)N[C@@H](CCCNC(=N)N)C(=O)N[C@@H](CCCNC(=N)N)C(=O)N[C@@H](CC(C)C)C(=O)N[C@H](C(=O)N[C@@H](CCC(=O)O)C(N)=O)[C@@H](C)O)NC(=O)[C@H](CC(C)C)NC(=O)[C@H](CCC(=O)O)NC(=O)[C@H](CCC(=O)O)NC1=O [SD15806] (Ac-PSRLEEELKRRLTE-NH2; lactam 5-9) the listed Mean (compound concentration) is 2.476

For record CC(=O)N[C@@H](CO)C(=O)N[C@@H](CCCNC(=N)N)C(=O)N[C@@H](CC(C)C)C(=O)N[C@@H](CCC(=O)O)C(=O)N[C@H]1CCC(=O)NCCCC[C@@H](C(=O)N[C@@H](CCCNC(=N)N)C(=O)N[C@@H](CCCNC(=N)N)C(=O)N[C@@H](CC(C)C)C(=O)N[C@H](C(=O)N[C@@H](CCC(=O)O)C(N)=O)[C@@H](C)O)NC(=O)[C@H](CC(C)C)NC(=O)[C@H](CCC(=O)O)NC1=O [SD15192] (Ac-SRLEEELKRRLTE-NH2; lactam 5-8) the listed Mean (compound concentration) is 0.88

====

# assayExplanation: Plasma stability, human plasma
# condition: human plasma, 37° C., timepoint 2 h
Bridge positions count the residues as written; N and C are the ends. Peptide text beside a SMILES is read from it.
Would you kindly list Tube 2 (compound concentration) for each of these compounds?

For record CC(=O)N[C@@H](CO)C(=O)N[C@@H](CCCNC(=N)N)C(=O)N[C@@H](CC(C)C)C(=O)N[C@@H](CCC(=O)O)C(=O)N[C@@H](CCC(=O)O)C(=O)N[C@@H](CCC(=O)O)C(=O)N[C@@H](CC(C)C)C(=O)N[C@@H](CCCNC(=N)N)C(=O)N[C@H]1CCCCNC(=O)CC[C@@H](C(N)=O)NC(=O)[C@H]([C@@H](C)O)NC(=O)[C@H](CC(C)C)NC(=O)[C@H](CCCNC(=N)N)NC1=O [SD15193] (Ac-SRLEEELRKRLTE-NH2; lactam 9-13) the listed Tube 2 (compound concentration) is 2.647

For record CC(=O)N[C@@H](CO)C(=O)N[C@@H](CCCNC(=N)N)C(=O)N[C@@H](CC(C)C)C(=O)N[C@@H](CCC(=O)O)C(=O)N[C@H]1CCC(=O)NCCCC[C@@H](C(=O)N[C@@H](CCCNC(=N)N)C(=O)N[C@@H](CCCNC(=N)N)C(=O)N[C@@H](CC(C)C)C(=O)N[C@H](C(=O)N[C@@H](CCC(=O)O)C(N)=O)[C@@H](C)O)NC(=O)[C@H](CC(C)C)NC(=O)[C@H](CCC(=O)O)NC1=O [SD15192] (Ac-SRLEEELKRRLTE-NH2; lactam 5-8) the listed Tube 2 (compound concentration) is 1.757

For record CC(=O)N[C@@H](CO)C(=O)N[C@@H](CCCNC(=N)N)C(=O)N[C@@H](CC(C)C)C(=O)N[C@@H](CCC(=O)O)C(=O)N[C@H]1CCC(=O)NCCCC[C@@H](C(=O)N[C@@H](CCCNC(=N)N)C(=O)N[C@@H](CC(C)C)C(=O)N[C@H](C(=O)N[C@@H](CCC(=O)O)C(N)=O)[C@@H](C)O)NC(=O)[C@H](CCCNC(=N)N)NC(=O)[C@H](CC(C)C)NC(=O)[C@H](CCC(=O)O)NC1=O [SD15194] (Ac-SRLEEELRKRLTE-NH2; lactam 5-9) the listed Tube 2 (compound concentration) is 2.052

For record CC(=O)N[C@@H](CO)C(=O)N[C@@H](CCCNC(=N)N)C(=O)N[C@@H](CC(C)C)C(=O)N[C@@H](CCC(=O)O)C(=O)N[C@H]1CC(=O)NCCCC[C@@H](C(=O)N[C@@H](CCCNC(=N)N)C(=O)N[C@@H](CC(C)C)C(=O)N[C@H](C(=O)N[C@@H](CCC(=O)O)C(N)=O)[C@@H](C)O)NC(=O)[C@H](CCCNC(=N)N)NC(=O)[C@H](CC(C)C)NC(=O)[C@H](CCC(=O)O)NC1=O [SD15196] (Ac-SRLEDELRKRLTE-NH2; lactam 5-9) the listed Tube 2 (compound concentration) is 2.234
